Source listed as patent US11866405B2.

# test_target: IRAK4 auto-phosphorylation (Homo sapiens (Human), UniProt Q9NWZ3)
# Sequence (Q9NWZ3 whole entry): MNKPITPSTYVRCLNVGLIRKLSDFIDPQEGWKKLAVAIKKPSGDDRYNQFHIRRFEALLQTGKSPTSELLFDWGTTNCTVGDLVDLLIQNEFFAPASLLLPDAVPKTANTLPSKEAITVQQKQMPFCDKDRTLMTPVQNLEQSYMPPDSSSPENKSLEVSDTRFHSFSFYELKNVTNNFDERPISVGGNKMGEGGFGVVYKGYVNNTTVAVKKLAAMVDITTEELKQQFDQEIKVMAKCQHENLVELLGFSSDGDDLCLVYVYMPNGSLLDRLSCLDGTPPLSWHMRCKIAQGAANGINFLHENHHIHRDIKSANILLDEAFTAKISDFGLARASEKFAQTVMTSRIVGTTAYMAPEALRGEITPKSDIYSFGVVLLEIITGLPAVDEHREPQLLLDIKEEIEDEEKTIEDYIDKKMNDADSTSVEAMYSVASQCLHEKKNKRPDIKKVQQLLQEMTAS
# assay: IRAK4 phosphorylation cell assay in IL-1β-stimulated Karpas-299 cells
# Assay type: cell-based
# condition_label: IL-1β 22.7 ng/mL, pIRAK4 (Thr345/Ser346), geometric mean of at least 2 experiments
reported_metric: IC50 (nM)

In [3]: df
Out[3]:
                                   compound  reported_metric  unit_annotation  numeric_readout
0  C[C@H]1C[C@H](O)CC[C@@H]1n1cc2cc(C(=O)Nc3cnn4cccnc34)c(OC3CC3)cc2n1 (relative stereo) [Example 43]             IC50               nM              101
1  COc1cc2nn([C@H]3CCC(N(C)C(C)=O)C[C@@H]3C)cc2cc1C(=O)Nc1cnn2cccnc12 (single isomer, unassigned) [Example 63]             IC50               nM              338
2  COc1cc2nn([C@H]3CC[C@@]4(CC3)CC(=O)N(C)C4)cc2cc1C(=O)Nc1cnn2cccnc12             IC50               nM               26
3  O=C(Nc1cnn2cccnc12)c1cc2cn([C@H]3CCC[C@@H](O)C3)nc2cc1OC1CC1             IC50               nM               19
4  COc1cc2nn([C@H]3CC[C@@]4(CCC(=O)N4C)CC3)cc2cc1C(=O)Nc1cnc2cccnn12             IC50               nM                5
5  O=C(Nc1cnn2cccnc12)c1cc2cn([C@@H]3CCC[C@H](O)C3)nc2cc1OC1CC1             IC50               nM               50

a: C[C@@]1(O)CCC[C@H](n2cc3cc(C(=O)Nc4cnn5cccnc45)c(OC4CC4)cc3n2)C1 (relative stereo) [Example 55]
b: COc1cc2nn([C@H]3CC[C@H](O)[C@@H](C)C3)cc2cc1C(=O)Nc1cnc2cccnn12 (single isomer, unassigned) [Example 81]
Compare a and b and name the one whose reported IC50 is smaller. Identify your pick by its label. a
(a: 51 nM, b: 82 nM)

* * *

# test_target: IRAK4 auto-phosphorylation (Homo sapiens (Human))
# assay: IRAK4 phosphorylation cell assay in IL-1β-stimulated Karpas-299 cells
# condition_label: IL-1β 22.7 ng/mL, pIRAK4 (Thr345/Ser346), geometric mean of at least 2 experiments
reported_metric: IC50 (nM)

a: COc1cc2nn([C@H]3CCC[C@H](O)[C@@H]3C)cc2cc1C(=O)Nc1cnc2cccnn12 (relative stereo) [Example 107]
b: COc1cc2nn([C@H]3CCC[C@](C)(O)C3)cc2cc1C(=O)Nc1cnn2cccnc12 (single isomer, unassigned) [Example 52]
Compare a and b and name the one whose reported IC50 is smaller. Identify your pick by its label. a

1: COc1cc2nn([C@H]3CC[C@@H](N(C)C(C)=O)CC3)cc2cc1C(=O)Nc1cnn2cnccc12
2: COc1cc2nn(C3CCC4(CC3)COC(=O)N4C)cc2cc1C(=O)Nc1cnc2cccnn12 (single isomer, unassigned) [Example 74]
Compare 1 and 2 and name the one whose reported IC50 is smaller. Identify your pick by its label. 2
(2: 79 nM, 1: 668 nM)

A: O=C(Nc1cnn2cccnc12)c1cc2cn([C@H]3CC[C@H](O)CC3)nc2cc1OC1CC1
B: COc1cc2nn([C@H]3CC[C@H](O)C[C@@H]3C)cc2cc1C(=O)Nc1cnn2cccnc12 (single isomer, unassigned) [Example 39]
Compare A and B and name the one whose reported IC50 is smaller. Identify your pick by its label. A

P: COc1cc2nn([C@@H]3CC[C@]4(CC(=O)N(C)C4)C[C@H]3C)cc2cc1C(=O)Nc1cnc2cccnn12 (relative stereo) [Example 71]
Q: COc1cc2nn([C@@H]3CC[C@@](C)(O)C[C@H]3C)cc2cc1C(=O)Nc1cnc2cccnn12
Of P and Q , which one carries the higher reported IC50? Identify your pick by its label. P

* * *

# test_target: human recombinant IRAK4 protein (Homo sapiens (Human), UniProt Q9NWZ3)
# assay: IRAK4 enzyme assay (mass spectrometry readout)
# condition_label: 3 mM ATP, 0.2 nM enzyme; geometric mean of at least n=2, * single experiment
pIC50: −log10 of the molar value.
reported_metric: pIC50

Some solved cases for reference:
>>> df
                                   compound  numeric_readout
0  COc1cc2nn([C@H]3CC[C@]4(CCC(=O)N4C)CC3)cc2cc1C(=O)Nc1cnc2cccnn12             8.47
1  COc1cc2nn([C@@H]3CC[C@H](O)[C@@H](C)C3)cc2cc1C(=O)Nc1cnc2cccnn12 (single isomer, unassigned) [Example 82]             8.62
2  COc1cc2nn([C@@H]3CC[C@]4(CC(=O)N(C)C4)C[C@H]3C)cc2cc1C(=O)Nc1cnc2cccnn12 (relative stereo) [Example 72]             9.40
3  COc1cc2nn(C3CCC(N(C)C(=O)C4CC(O)C4)CC3)cc2cc1C(=O)Nc1cnn2cnccc12 (stereo not shown)             9.22
4  C[C@H]1C[C@@H](O)CC[C@@H]1n1cc2cc(C(=O)Nc3cnn4cccnc34)c(OC3CC3)cc2n1 (single isomer, unassigned) [Example 44]             9.10
5  COc1cc2nn([C@H]3CC[C@H](N(C)C(=O)C4CC4)CC3)cc2cc1C(=O)Nc1cnn2cnccc12             9.30

A: COc1cc2nn([C@H]3CC[C@H](n4nccn4)CC3)cc2cc1C(=O)Nc1cnc2cccnn12
B: COc1cc2nn([C@H]3CCC(N(C)C(C)=O)C[C@@H]3C)cc2cc1C(=O)Nc1cnc2cccnn12 (single isomer, unassigned) [Example 35]
C: O=C(Nc1cnn2cccnc12)c1cc2cn([C@H]3CC[C@@H](O)CC3)nc2cc1OC1CC1
// sort entries: pIC50, high to low In your reply, arrange the labels in the requested order. A, C, B
(A: 9.22, C: 8.92, B: 8.14)

1: O=C(Nc1cnn2cccnc12)c1cc2cn([C@H]3CC[C@H](O)CC3)nc2cc1OC1CC1
2: COc1cc2nn([C@H]3CCC[C@@H](O)[C@@H]3C)cc2cc1C(=O)Nc1cnc2cccnn12 (single isomer, unassigned) [Example 108]
Of 1 and 2 , which one carries the higher reported pIC50? Identify your pick by its label. 2
(2: 9.40, 1: 9.10)

* * *

# System: IL-1β stimulated IL-8 release in hTHP1 cells
# assay: IL-1β-induced IL-8 release in human THP-1 monocyte cell line
# Type: cell-based
# condition_label: Homo sapiens, THP-1, 18 h, THP-1 cells, IL-1β 1.8 ng/mL, geometric mean of at least n=2, * n = 1, read-out: hTHP1, IL1β stim, IL8 release red. IC50
reported_metric: IC50 (nM)

Some solved cases for reference:
>>> df
                                   compound                               test_target  numeric_readout
0  COc1cc2nn([C@@H]3CC[C@](C)(O)C[C@H]3C)cc2cc1C(=O)Nc1cnc2cccnn12  IL-1β stimulated IL-8 release in hTHP1 cells               28
1  COc1cc2nn(C3CCC4(CC3)CC(C)(O)C4)cc2cc1C(=O)Nc1cnc2cccnn12 (single isomer, unassigned)  IL-1β stimulated IL-8 release in hTHP1 cells               16
2  COc1cc2nn([C@H]3CCC[C@@H](O)C3)cc2cc1C(=O)Nc1cnc2cccnn12 (single isomer, unassigned)  IL-1β stimulated IL-8 release in hTHP1 cells               14

P: COc1cc2nn([C@H]3CC[C@@]4(CC3)CC(=O)N(C)C4)cc2cc1C(=O)Nc1cnc2cccnn12
Q: C[C@H]1C[C@@H](O)CC[C@@H]1n1cc2cc(C(=O)Nc3cnn4cccnc34)c(OC3CC3)cc2n1 (single isomer, unassigned)
Compare P and Q and name the one whose reported IC50 is smaller. Identify your pick by its label. Q
(Q: 46 nM, P: 84 nM)

a: COc1cc2nn([C@H]3CC[C@H](O)C[C@@H]3C)cc2cc1C(=O)Nc1cnn2cccnc12 (single isomer, unassigned)
b: CC(=O)N1CC2(CC[C@@H](n3cc4cc(C(=O)Nc5cnn6cccnc56)c(OC5CC5)cc4n3)[C@H](C)C2)C1 (single isomer, unassigned)
c: COc1cc2nn([C@@H]3CCC(N(C)C(C)=O)C[C@H]3C)cc2cc1C(=O)Nc1cnc2cccnn12 (single isomer, unassigned)
d: COc1cc2nn([C@H]3CCC[C@@H](O)C3)cc2cc1C(=O)Nc1cnn2cccnc12 (single isomer, unassigned)
// sort entries: IC50, high to low In your reply, arrange the labels in the requested order. d, a, b, c

a: COc1cc2nn([C@H]3CCC(N(C)C(C)=O)C[C@@H]3C)cc2cc1C(=O)Nc1cnc2cccnn12 (single isomer, unassigned)
b: O=C(Nc1cnn2cccnc12)c1cc2cn([C@H]3CCC[C@H](O)C3)nc2cc1OC1CC1 (single isomer, unassigned)
c: COc1cc2nn([C@H]3CC[C@H](O)[C@@H](C)C3)cc2cc1C(=O)Nc1cnc2cccnn12 (single isomer, unassigned)
// sort entries: IC50, high to low In your reply, arrange the labels in the requested order. c, b, a
(c: 70 nM, b: 35 nM, a: 22 nM)
